Molecular target: T1, DLG3_2, Q92796
T1 sequence (Q92796 221-321, limits assumed, looked up): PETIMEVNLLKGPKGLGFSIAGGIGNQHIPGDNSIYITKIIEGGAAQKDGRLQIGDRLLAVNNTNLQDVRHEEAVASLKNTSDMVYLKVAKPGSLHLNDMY
Experiment: holdup assay
Set-up: key: below the threshold = too weak to quantify, mostly under pKd 3.1 to 4
Details: plain residues with an end cap or a label only (N-terminal biotin on a linker: ttds)
Parameter: pKd

binder="SRSRRRETAL [HPV33-E6, P06427]" parameter=pKd experimental_value=4.61
binder="GRLLGLETNV [ARHGEF26, Q96DR7]" parameter=pKd experimental_value=4.97
binder="GARVSKETPL [MAPK12, P53778]" parameter=pKd experimental_value=4.28
binder="SHSSKGETAV [FZD7, O75084]" parameter=pKd experimental_value=4.53
binder="NPDALPETLV [ARHGAP6, O43182]" parameter=pKd experimental_value=4.18
binder="KQVVPFSSSV [GDA, Q9Y2T3]" parameter=pKd experimental_value=4.38

Data provenance: paper PMC9482650
